# measuredTarget: THR beta (Homo sapiens, UniProt P10828)
# Construct: expressed in transfected cells; host or cells: HEK293T (ATCC CRL-3216)
# Sequence (P10828 whole entry): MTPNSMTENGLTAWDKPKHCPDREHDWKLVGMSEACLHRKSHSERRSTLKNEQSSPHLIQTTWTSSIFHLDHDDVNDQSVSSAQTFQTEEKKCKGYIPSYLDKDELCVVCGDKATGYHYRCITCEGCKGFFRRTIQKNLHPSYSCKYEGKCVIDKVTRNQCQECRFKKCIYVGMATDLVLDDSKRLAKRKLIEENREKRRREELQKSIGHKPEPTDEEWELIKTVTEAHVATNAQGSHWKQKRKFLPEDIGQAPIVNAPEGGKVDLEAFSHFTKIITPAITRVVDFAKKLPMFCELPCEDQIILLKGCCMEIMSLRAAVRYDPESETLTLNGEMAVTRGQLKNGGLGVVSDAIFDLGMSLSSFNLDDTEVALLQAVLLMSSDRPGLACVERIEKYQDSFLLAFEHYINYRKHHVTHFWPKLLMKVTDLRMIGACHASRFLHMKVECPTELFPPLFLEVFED
# Sequence (P19793 whole entry partner): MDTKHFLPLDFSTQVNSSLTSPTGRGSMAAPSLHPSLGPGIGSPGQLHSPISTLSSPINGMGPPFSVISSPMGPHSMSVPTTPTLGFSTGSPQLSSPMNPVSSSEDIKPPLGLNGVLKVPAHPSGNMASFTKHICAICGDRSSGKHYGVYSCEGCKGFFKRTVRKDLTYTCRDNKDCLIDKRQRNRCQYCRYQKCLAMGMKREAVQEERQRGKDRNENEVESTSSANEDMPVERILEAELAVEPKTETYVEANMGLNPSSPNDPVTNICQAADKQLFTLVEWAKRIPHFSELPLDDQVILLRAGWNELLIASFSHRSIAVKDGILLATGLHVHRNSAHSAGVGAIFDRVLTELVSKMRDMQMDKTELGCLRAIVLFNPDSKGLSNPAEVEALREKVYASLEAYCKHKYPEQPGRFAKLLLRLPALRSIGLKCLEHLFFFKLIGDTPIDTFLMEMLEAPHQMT
# protocol: HEK293T THR beta/RXR luciferase reporter assay (Assay 2)
# Type: cell-based
# conditionSet: THR-beta, HEK293T reporter assay; read-out: Activity category Assay 2 (EC50, THR-beta agonist)
pEC50: −log10 of the molar value.
assayReadout: pEC50

In: pEC50 lookup needed for CO[C@H]1C[C@@H](c2cc(Oc3c(Cl)cc(-n4nc(N)c(=O)[nH]c4=O)cc3Cl)n[nH]c2=O)C1 [Compound 103] , thanks.
Out: 5.00 to 6.00

In: pEC50 lookup needed for CC1(C)CN(c2cc(Oc3c(Cl)cc(-n4nc(N)c(=O)[nH]c4=O)cc3Cl)n[nH]c2=O)C1 [Compound 159] , thanks.
Out: 6.60 to 7.30

In: pEC50 lookup needed for Cc1cc(-n2ncc(=O)[nH]c2=O)cc(C)c1Cc1ccc2[nH]cc(C(C)C)c2n1 [Compound 54] , thanks.
Out: > 7.30

In: pEC50 lookup needed for Cc1cc(-n2ncc(=O)[nH]c2=O)cc(C)c1Cc1ccc2c(c1)C1(CC1)C(=O)N2 [Compound 152] , thanks.
Out: > 7.30

In: pEC50 lookup needed for CC(C)c1cc(Oc2c(Br)cc(-n3nc(N)c(=O)[nH]c3=O)cc2Br)n[nH]c1=O [Compound 81] , thanks.
Out: > 7.30

In: pEC50 lookup needed for O=c1cc(-c2ccc3c(c2)CCCC3)c(Oc2c(Cl)cc(-n3ncc(=O)[nH]c3=O)cc2Cl)n[nH]1 [Compound 91-A] , thanks.
Out: 6.60 to 7.30

In: pEC50 lookup needed for Nc1nn(-c2cc(Cl)c(Oc3cc(C4CCCCC4)c(=O)[nH]n3)c(Cl)c2)c(=O)[nH]c1=O [Compound 58] , thanks.
Out: 6.60 to 7.30
